Target: ScSla1-D3
Assay: SPOT peptide array binding signal intensity (averaged, normalized) (arbitrary units (background-subtracted, floor 0; scale differs between SH3 domains)); higher = stronger binding of the SH3 domain to the peptide
Label scheme for SPOT peptide array binding signal intensity: lower than 50 is false (0), 50 and above is true (1).

Worked examples follow.
| binder | qualitative label |
| --- | --- |
| KRKRFNLLLPKPYLT | false (0) |
| SLSRRRFSLPSMPNV | true (1) |
| RPVPPPPPMRTTTEG | true (1) |

-- ask Hi team, for EVTPKVPERPSRRKT , is the recorded SPOT peptide array binding signal intensity at or above 50?
-- reply true (1)

-- ask Then this binder: VFQFQMPTTPISTKM
-- reply true (1)

-- ask Then this binder: GATNNAPTLPKRKNP
-- reply false (0)

-- ask Then this binder: DRIRMFIRFPKFLLE
-- reply true (1)

-- ask Then this binder: LRWRHKFFLPAIAAI
-- reply false (0)

-- ask Then this binder: RVRKTHVPASKRPSG
-- reply false (0)

-- ask Then this binder: GDHPKGPPPPPPPDE
-- reply false (0)

-- ask Then this binder: LKRITSPPLPPRADS
-- reply false (0)

-- ask Then this binder: TSFKGRPKPPKTLKH
-- reply false (0)

-- ask Then this binder: QLMKNLPKIPLLNDI
-- reply true (1)

-- ask Then this binder: DAPASKPSVPPRNYF
-- reply true (1)

-- ask Then this binder: YSRKKLPVVLSKMTL
-- reply true (1)
